System: A549 cells
Settings: A549 cells, WST-1, 24 h, mean ± standard error
endpoint label: TC50 (µM)
Report the value in µM with no unit label.

A selection of reference data follows.
O=C(Nc1cccc(C(F)(F)F)c1)c1c[nH]c2ccc(Nc3ccc(O)cc3)cc12 32
O=C(Nc1cccc(C(F)(F)F)c1)c1c[nH]c2ccc(Br)cc12 22
O=C(Nc1cccc(C(F)(F)F)c1)c1c[nH]c2ccc(Nc3cccc([N+](=O)[O-])c3)cc12 16

Request: Find TC50 (A549 cells) for the entry "O=C(Nc1cccc(C(F)(F)F)c1)c1c[nH]c2ccc(Nc3ccc([N+](=O)[O-])cc3)cc12"
Response: 11
